Origin of the recorded values: patent US20240408169A1

Below, each entry is listed alongside its reported log10 GI50.
Tested on: NCI-H1048 cells
Experiment: MTT proliferation assay, NCI-H1048;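 note: Dose-response in 96-well plates over 8 or 10 concentration points, with exposure spanning 3-4 cell doublings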
Assay type: cell-based
Conditions: 5 days compound exposure, 1:3 serial dilution starting at 10 μM
*1 amine or outer side, *2 acyl side, *3 side chain or, on linkers, in order; H or OH if unused. Where a SMILES comes first, the peptide text is derived from it. Bridges are numbered along the chain shown (N, C = ends). [ ]: non-standard residue; d: D form. The star is where a group is joined. X7 = CC(C)C(=O)N1[C@H]2CC[C@@H]1C=C(c1ccc(F)cc1C[C@@H](C(=O)[*:2])N(C)[*:1])C2; X30 = CN([C@@H](Cc1cc(Cl)ccc1-c1ccc2c(c1)ncn2C)C(=O)[*:2])[*:1]; X166 = CN([C@@H](Cc1cc(F)ccc1C1=CC2COCC(C1)N2)C(=O)[*:2])[*:1]; X79 = CC(C)n1cc(-c2ccc(Cl)cc2C[C@@H](C(=O)[*:2])N(C)[*:1])cn1; X196 = CN([C@@H](Cc1cc(F)ccc1-c1cnn2ccncc12)C(=O)[*:2])[*:1]; NMehhhLys(Me) = CN([C@@H](CCCCCCCN(C)[*:3])C(=O)[*:2])[*:1]; cBuCO(3,3-F2-1-CF3) = O=C(C1(C(F)(F)F)CC(F)(F)C1)*; Pro(trans-4-F) = O=C(O)[C@@H]1C[C@@H](F)CN1; Gly(cPr) = N[C@H](C(=O)O)C1CC1
// do not treat as linear: log10 of GI50, unit nM

// known answers, use as guide
CC(C)C[C@@H]1NC(=O)[C@@H](N(C)C(=O)[C@@H](NC(=O)[C@@H]2C[C@@H](F)CN2C(=O)C2(C(F)(F)F)CC2)C2CC2)CC=CCCCCNC(=O)[C@H](Cc2cc(Cl)ccc2Cl)N(C)C1=O (single isomer, unassigned) [Example 5-P2] ... 2.46
CC(C)C[C@@H]1NC(=O)[C@@H](N(C)C(=O)[C@@H](NC(=O)[C@@H]2C[C@@H](F)CN2C(=O)C2(C(F)(F)F)CC(F)(F)C2)C2CC2)CCCCCCCN(C)C(=O)[C@H](Cc2cc(F)ccc2C2=CC3COCC(C2)N3)N(C)C1=O (stereo partly drawn) [Example 166] ({cBuCO(3,3-F2-1-CF3)}-[Pro(trans-4-F)][Gly(cPr)][NMehhhLys(Me)]L[X166]; lactam 3-C) ... 1.60
CC(C)C[C@@H]1NC(=O)[C@@H](N(C)C(=O)[C@@H](NC(=O)[C@@H]2C[C@@H](F)CN2C(=O)C2(C(F)(F)F)CC(F)(F)C2)C2CC2)CCCCCCCN(C)C(=O)[C@H](Cc2cc(Cl)ccc2-c2ccc3c(c2)ncn3C)N(C)C1=O [Example 251] ({cBuCO(3,3-F2-1-CF3)}-[Pro(trans-4-F)][Gly(cPr)][NMehhhLys(Me)]L[X30]; lactam 3-C) ... 1.00
CC(C)C[C@@H]1NC(=O)[C@@H](N(C)C(=O)[C@@H](NC(=O)[C@@H]2C[C@@H](F)CN2C(=O)C2(C(F)(F)F)CC(F)(F)C2)C2CC2)CC=CCCCCN(C)C(=O)[C@H](Cc2cc(F)ccc2C2=CCC(O)CC2)N(C)C1=O (stereo partly drawn) [Example 47] ... 1.48
CC(C)C[C@@H]1NC(=O)[C@@H](N(C)C(=O)[C@@H](NC(=O)[C@@H]2C[C@@H](F)CN2C(=O)C2(C(F)(F)F)CC(F)(F)C2)C2CC2)CCCCCCCN(C)C(=O)[C@H](Cc2cc(F)ccc2C2=C[C@H]3CC[C@@H](C2)N3C(=O)C(C)C)N(C)C1=O [Example 318] ({cBuCO(3,3-F2-1-CF3)}-[Pro(trans-4-F)][Gly(cPr)][NMehhhLys(Me)]L[X7]; lactam 3-C) ... 1.00

Reported log10 GI50 for CC(C)C[C@@H]1NC(=O)[C@@H](N(C)C(=O)[C@@H](NC(=O)[C@@H]2C[C@@H](F)CN2C(=O)C2(C(F)(F)F)CC(F)(F)C2)C2CC2)CCCCCCCN(C)C(=O)[C@H](Cc2cc(F)ccc2-c2cnn3ccncc23)N(C)C1=O [Example 310] ({cBuCO(3,3-F2-1-CF3)}-[Pro(trans-4-F)][Gly(cPr)][NMehhhLys(Me)]L[X196]; lactam 3-C) was 1.00

Reported log10 GI50 for CC(C)C[C@@H]1NC(=O)[C@@H](N(C)C(=O)[C@@H](NC(=O)[C@@H]2C[C@@H](F)CN2C(=O)C2(C(F)(F)F)CC(F)(F)C2)C2CC2)CC=CCCCCN(C)C(=O)[C@H](Cc2cc(Cl)ccc2-c2cnn(C3CC3)c2)N(C)C1=O [Example 78] was 1.48

Reported log10 GI50 for CC(C)C[C@@H]1NC(=O)[C@@H](N(C)C(=O)[C@@H](NC(=O)[C@@H]2C[C@@H](F)CN2C(=O)C2(C(F)(F)F)CC(F)(F)C2)C2CC2)CCCCCCCN(C)C(=O)[C@H](Cc2cc(Cl)ccc2-c2cnn(C(C)C)c2)N(C)C1=O [Example 111] ({cBuCO(3,3-F2-1-CF3)}-[Pro(trans-4-F)][Gly(cPr)][NMehhhLys(Me)]L[X79]; lactam 3-C) was 1.00

Reported log10 GI50 for CC(=O)N1CC=C(c2ccc(Cl)cc2C[C@H]2C(=O)NCCCC=CCC[C@H](N(C)C(=O)[C@@H](NC(=O)[C@@H]3C[C@@H](F)CN3C(=O)C3(C(F)(F)F)CC(F)(F)C3)C3CC3)C(=O)N[C@@H](CC(C)C)C(=O)N2C)CC1 [Example 267] was 1.70
